Data provenance: PubChem BioAssay AID1159580

assay: chemical genetic growth profiling, strain panel (AID 1159580);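 also: tested at 20 µM; growth read once vehicle control cultures reached saturation at 30 °C; 1 = growth at the plate median or of vehicle wells; lower values mean less growth of the strain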; details: S. cerevisiae deletion strains, growth OD, locus YLR268W, strain sec22, stronger effect = lower value
About 2,000 (36%) of roughly 5,500 compounds were called active. About 18% were inconclusive and are not listed. The list shows a part of the results.
Doc: threshold 1 (exclusive). Items with normalized growth beneath it return condition met; others return condition not met.

1. CC(=O)OCC(=O)[C@@]1(O)[C@H](OC(C)=O)CC2C3CCC4=CC(=O)C=C[C@]4(C)[C@@]3(F)[C@@H](O)C[C@@]21C (stereo partly drawn)
condition not met
2. CC(CN(C)C)CN1c2ccccc2Sc2ccccc21 (stereo not drawn)
condition met
3. O=c1cc(-c2ccccc2)oc2cc(O)c(O)c(O)c12
condition met

---

assay: chemical genetic growth profiling, strain panel (AID 1159580);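 also: tested at 20 µM; growth read once vehicle control cultures reached saturation at 30 °C; 1 = growth at the plate median or of vehicle wells; lower values mean less growth of the strain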; conditions: S. cerevisiae deletion strains, growth OD, locus YNL071W, strain lat1, stronger effect = lower value
The campaign covered roughly 5,500 compounds. About 2,000 (36%) were called active. Inconclusive results (about 18%) are left out. The list shows a part of the results.
recorded.metric: normalized growth

1) CN(C)C(=O)Nc1ccc(Cl)c(Cl)c1
0.982
2) O=c1cc(-c2ccc(O)cc2)oc2cc(O)cc(O)c12
0.993
3) COc1ccc(C(=O)N2CCCC2=O)cc1
0.982
4) CC(=O)O[C@H]1C[C@@H](OC(C)=O)C(C)(C)C2CC(=O)[C@]3(C)C(CC[C@@]4(C)[C@H](c5ccoc5)OC(=O)[C@H]5O[C@]543)[C@]21C (stereo not given in full)
0.992
5) CN(C)CCOC(=O)COc1ccc(Cl)cc1
0.988
6) O=c1cc(-c2ccc(O)cc2)oc2cc(O)ccc12
0.972
7) COc1ccc(C(=O)CC(=O)c2ccc(C(C)(C)C)cc2)cc1
0.998
8) CC(=O)OCC(=O)[C@@]1(O)[C@H](OC(C)=O)CC2C3CCC4=CC(=O)C=C[C@]4(C)[C@@]3(F)[C@@H](O)C[C@@]21C (stereo not given in full)
0.974
9) CCC(=O)Nc1ccc(Cl)c(Cl)c1
0.987
10) Cc1cc(=O)oc2c(O)c(O)ccc12
0.983

---

This section presents compounds with their documented normalized growth values.
assay: chemical genetic growth profiling, strain panel (AID 1159580);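 also: tested at 20 µM; growth read once vehicle control cultures reached saturation at 30 °C; 1 = growth at the plate median or of vehicle wells; lower values mean less growth of the strain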; conditions: S. cerevisiae deletion strains, growth OD, locus YPL106C, strain sse1, stronger effect = lower value
Screen size: about 5,500 compounds; about 2,000 (36%) were called active. Another 18% or so got no clear call; they are omitted. This is one part of the list.
recorded.metric: normalized growth

1. CC(=O)O[C@H]1C[C@@H](OC(C)=O)C(C)(C)C2CC(=O)[C@]3(C)C(CC[C@@]4(C)[C@H](c5ccoc5)OC(=O)[C@H]5O[C@]543)[C@]21C (stereo partly drawn)
1 (inactive)
2. O=[N+]([O-])c1cccc2c(Br)[nH]nc12
0.979 (inactive)
3. Nc1ccncc1
1 (inactive)

---

assay: chemical genetic growth profiling, strain panel (AID 1159580);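 also: tested at 20 µM; growth read once vehicle control cultures reached saturation at 30 °C; 1 = growth at the plate median or of vehicle wells; lower values mean less growth of the strain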; conditions: S. cerevisiae deletion strains, growth OD, locus YLR113W, strain HOG1
About 2,000 (36%) of roughly 5,500 compounds were called active. Roughly 18% stayed inconclusive and do not appear here. Cut-off read from the data, not from the text of the source: active = normalized growth mostly below about 0.91 (no sharp cut-off); inconclusive = no clear call, values can overlap the other calls; inactive = mostly above about 0.92. Some of the results follow.
Outcomes: yes (active), no (inactive)

1. C[C@@H](N)[C@@H](O)c1ccccc1
no
2. CCCCCC1C(=O)CCC1CC(=O)OC (stereo not drawn)
no
3. O=c1cc(-c2ccccc2)oc2cc(O)c(O)c(O)c12
yes
4. CN(C)CCC(c1ccc(Br)cc1)c1ccccn1 (stereo not drawn)
no
5. CC1CCC2(OC1)OC1CC3C4CCC5C[C@@H](O)CCC5(C)C4=CCC3(C)C1[C@@H]2C (stereo partly drawn)
no
6. Cc1ccc(S(=O)(=O)Nc2ccc(Oc3ccc(F)cc3)cc2)cc1
yes
7. NC(N)=O
no
8. Cc1ncc([N+](=O)[O-])n1CC(C)O (stereo not drawn)
no
9. N[C@@H]1[C@@H](O)[C@H](O)[C@@H](CO)O[C@H]1O
no
10. Cc1ccc(N2C(=O)CSC2c2ccc(Cl)c(Cl)c2)cc1Cl (stereo not drawn)
yes
11. O=c1cc(-c2ccccc2)oc2cc(O)cc(O)c12
yes
12. CCN(CCCc1ccccc1)CCCc1ccccc1
no
13. C[C@@H]1CC2C3C[C@H](F)C4=CC(=O)C=C[C@]4(C)[C@@]3(F)[C@@H](O)C[C@]2(C)[C@@]1(O)C(=O)COC(=O)C(C)(C)C (stereo partly drawn)
no
14. CC(CN(C)C)CN1c2ccccc2CCc2ccccc21 (stereo not drawn)
no
15. O=[N+]([O-])c1cccc2cn[nH]c12
no
16. Clc1ccc2c(c1)C(N1CCNCC1)=Nc1ccccc1O2
no
17. O=C1/C(=C/c2ccc(C(F)(F)F)cc2)COc2ccccc21
yes
18. OC[C@H]1OC([S-])[C@H](O)[C@@H](O)[C@@H]1O.[Au+] (stereo partly drawn)
yes
19. O=C(Nc1cccc2ccccc12)c1ccccc1O
yes
20. CC(=O)Nc1nnc(S(N)(=O)=O)s1
no
21. NCC(CC(=O)O)c1ccc(Cl)cc1 (stereo not drawn)
no
22. O=S(=O)([O][Al])OC[C@H]1O[C@@](COS(=O)(=O)[O][Al])(O[C@H]2O[C@H](COS(=O)(=O)[O][Al])[C@@H](OS(=O)(=O)[O][Al])[C@H](OS(=O)(=O)[O][Al])[C@H]2OS(=O)(=O)[O][Al])[C@@H](OS(=O)(=O)[O][Al])[C@@H]1OS(=O)(=O)[O][Al]
no
23. COc1cc(CC/C(C)=N\O)ccc1OCc1ccc(Cl)c(Cl)c1
yes
24. O=C1CSC(c2ccc(C(F)(F)F)cc2)N1c1ccc(C(F)(F)F)cc1 (stereo not drawn)
yes
25. S=P(N1CC1)(N1CC1)N1CC1
no
26. O=c1cc(-c2ccccc2)oc2cc(O)c(O)cc12
no
27. CO[C@]12C[C@@H](COC(=O)c3cncc(Br)c3)CN(C)[C@@H]1Cc1cn(C)c3cccc2c13
no
28. CC(C)(C)C(=O)/C(C#N)=C/c1c(Cl)cccc1Cl
yes
29. O=C(O)CCCOc1ccc(Cl)cc1Cl
yes
30. O=C1/C(=C/c2cccs2)COc2ccccc21
yes
31. NNCCc1ccccc1
no
32. c1ccc2c(c1)CN1CCCC1=N2
no
33. Cc1cc(=O)oc2c(O)c(O)ccc12
no
